Target: T1, human IL-12 (human, UniProt P29459 23-219; P29460 23-328)
T1 construct: also called interleukin 12
T1 sequence (looked up) 1: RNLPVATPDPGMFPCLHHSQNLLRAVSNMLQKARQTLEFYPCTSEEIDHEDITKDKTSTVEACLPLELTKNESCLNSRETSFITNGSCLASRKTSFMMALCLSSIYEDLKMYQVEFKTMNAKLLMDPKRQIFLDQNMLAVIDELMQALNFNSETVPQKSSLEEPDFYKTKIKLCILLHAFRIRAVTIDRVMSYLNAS
T1 sequence (looked up) 2: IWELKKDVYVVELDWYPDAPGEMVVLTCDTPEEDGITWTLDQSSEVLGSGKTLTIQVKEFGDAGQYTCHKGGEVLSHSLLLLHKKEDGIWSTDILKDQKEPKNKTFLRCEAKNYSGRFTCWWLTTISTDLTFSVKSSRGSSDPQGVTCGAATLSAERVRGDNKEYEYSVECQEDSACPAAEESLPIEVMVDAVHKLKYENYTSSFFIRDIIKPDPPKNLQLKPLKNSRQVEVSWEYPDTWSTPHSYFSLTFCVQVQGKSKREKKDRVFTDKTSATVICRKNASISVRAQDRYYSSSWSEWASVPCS
Experiment: SPR, IL-12
Recorded measurements of Kd, one per entry

| binder | Kd / nM |
| --- | --- |
| mAb 9 (antibody, IgG1, V domains shown, Briakinumab variant (IgG1) with three positively charged residues of the light chain CDRs mutated to alanine; also called Briakinumab with LC mutations R27A, R55A, R94A) VH: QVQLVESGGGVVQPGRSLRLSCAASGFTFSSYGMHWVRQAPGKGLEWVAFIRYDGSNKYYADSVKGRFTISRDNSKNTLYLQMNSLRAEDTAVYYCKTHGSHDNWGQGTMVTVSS VL: QSVLTQPPSVSGAPGQRVTISCSGSASNIGSNTVKWYQQLPGTAPKLLIYYNDQAPSGVPDRFSGSKSGTSASLAITGLQAEDEADYYCQSYDAYTHPALLFGTGTKVTVL | 0.01 |
| mAb 1 (antibody, V domains shown, Fv domain of Ustekinumab on the constant parts of Briakinumab (IgG1)) VH: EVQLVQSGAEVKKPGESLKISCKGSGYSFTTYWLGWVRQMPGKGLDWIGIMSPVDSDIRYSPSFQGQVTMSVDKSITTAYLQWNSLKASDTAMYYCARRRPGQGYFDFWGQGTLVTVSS VL: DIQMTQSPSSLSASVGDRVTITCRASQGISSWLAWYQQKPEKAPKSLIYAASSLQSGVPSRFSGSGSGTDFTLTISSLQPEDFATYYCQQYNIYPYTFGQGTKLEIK | 0.24 |
